molecular target: human BRD4 second bromodomain (BDII_E352-M457) (Homo sapiens (Human), UniProt O60885); assay: TR-FRET bromodomain binding assay, BRD4 second bromodomain
So I've got a bunch of compounds here, and I need their pKi values.
Answers are plain numbers, as −log10 of the molar value.

# map each compound to its pKi
1. Cn1cc(-c2cc(S(C)(=O)=O)ccc2Oc2ccc(F)cc2F)c2cc(CNC3CCOC3)[nH]c2c1=O (stereo not shown) [Example 284]
2. Cn1cc(-c2cc(S(=O)(=O)Nc3ccc(F)cc3)ccc2OCC2CC2)c2cc[nH]c2c1=O [Example 347]
3. Cn1cc(-c2cc(C(=O)NCc3ccc(F)c(F)c3)ccc2Oc2ccc(F)cc2F)c2cc[nH]c2c1=O [Example 125]
4. Cn1cc(-c2cc(S(C)(=O)=O)ccc2Oc2ccc(F)cc2F)c2cc(CN3CCOCC3)[nH]c2c1=O [Example 280]

## Output
1. 6.89
2. 8.40
3. 6.56
4. 7.04

* * *

test: Human liver microsome stability assay; format: in vitro ADME; details: both sexes, human, microsomes, pH 7.4
endpoint: half-life at 0.5 μM (min)
Numbers only, in min.

A selection of reference data follows.
> print(dat)
                               given.smiles  recorded.number
1  Cn1cc(-c2cc(NS(C)(=O)=O)ccc2Oc2ccc(F)cc2F)c2cc[nH]c2c1=O               32
2  Cn1cc(-c2cc(S(C)(=O)=O)ccc2OC2CCCCC2)c2cc[nH]c2c1=O               12
3  Cn1cc(-c2cc(S(C)(=O)=O)ccc2OCC2CCCC2)c2cc[nH]c2c1=O               27
4  CCS(=O)(=O)Nc1ccc(Oc2c(F)cc(F)cc2F)c(-c2cn(C)c(=O)c3[nH]ccc23)c1               64
5  Cc1ccc(F)cc1Oc1ccc(S(C)(=O)=O)cc1-c1cn(C)c(=O)c2[nH]ccc12                9

## Input Return half-life at 0.5 μM for the following compound: `COC(=O)c1cc2c(-c3ccccc3Oc3ccccc3)cn(C)c(=O)c2[nH]1`
## Output 6

* * *

target: human BRD4 second bromodomain (BDII_E352-M457) (Homo sapiens (Human)); assay: TR-FRET bromodomain binding assay, BRD4 second bromodomain
endpoint: pKi
Answers are plain numbers, as −log10 of the molar value.

// worked examples, pKi included
> print(dat)
                                   molecule  recorded.number
1  CN(C)S(=O)(=O)c1cnc(Oc2ccc(F)cc2F)c(-c2cn(C)c(=O)c3[nH]ccc23)c1             8.11
2  CCS(=O)(=O)c1ccc(Oc2cccc(CO)c2)c(-c2cn(C)c(=O)c3[nH]ccc23)c1             8.44
3  Cn1cc(-c2cc(S(C)(=O)=O)ccc2Oc2cccc(C#N)c2)c2cc[nH]c2c1=O             7.83
4  Cn1cc(-c2cc(S(C)(=O)=O)ccc2Oc2ccc(F)cc2F)c2cc(CO)[nH]c2c1=O             7.77

For each listed entry, give its pKi.
1. CCS(=O)(=O)c1ccc(OCC2CC2(F)F)c(-c2cn(C)c(=O)c3[nH]c(C(=O)NCC(F)(F)F)cc23)c1 (stereo not shown)
2. Cc1ncccc1Oc1ccc(S(C)(=O)=O)cc1-c1cn(C)c(=O)c2[nH]ccc12
3. Cn1cc(-c2cc(C(=O)NCc3ccncc3)ccc2Oc2ccc(F)cc2F)c2cc[nH]c2c1=O

## Output
1. 8.38
2. 7.78
3. 7.48

* * *

target: human BRD4 second bromodomain (BDII_E352-M457) (Homo sapiens (Human)); experiment: TR-FRET bromodomain binding assay, BRD4 second bromodomain
endpoint: pKi
Give bare numbers, as −log10 of the molar value.

Study these solved cases before continuing.
> print(dat)
                                   compound  recorded.number
1  CCS(=O)(=O)Nc1ccc(Oc2ccc(F)cc2F)c(-c2cn(C)c(=O)c3[nH]c(CN4CCN(C)CC4)cc23)c1             7.50
2  Cn1cc(-c2cc(S(C)(=O)=O)ccc2OC2CCC2)c2cc[nH]c2c1=O             8.32
3  CN(c1ccc(Oc2ccccc2)c(-c2cn(C)c(=O)c3[nH]ccc23)c1)S(C)(=O)=O             8.41

## Input Report measured pKi on human BRD4 second bromodomain (BDII_E352-M457) (Homo sapiens (Human)); entry: Cn1cc(-c2cc(C(=O)NC3CCOC3)ccc2Oc2ccc(F)cc2F)c2cc[nH]c2c1=O (stereo not shown)
## Output 7.79

* * *

Please respond with reported pKi for every item in the list.
biological target: human BRD4 first bromodomain (BDI_K57-E168) (Homo sapiens (Human), UniProt O60885); assay: TR-FRET bromodomain binding assay, BRD4 first bromodomain
Numbers only, as −log10 of the molar value.

See these solved cases before continuing.
> print(dat)
                                   compound                     target.or.test.system  recorded.number
1  CCS(=O)(=O)Nc1ccc(OC2CCOC2)c(-c2cn(C)c(=O)c3[nH]ccc23)c1 (stereo not shown)  human BRD4 first bromodomain (BDI_K57-E168) (Homo sapiens (Human), UniProt O60885)             9.13
2  Cn1cc(-c2cc(S(N)(=O)=O)cnc2Nc2ccccc2)c2cc[nH]c2c1=O  human BRD4 first bromodomain (BDI_K57-E168) (Homo sapiens (Human), UniProt O60885)             8.06
3  CCS(=O)(=O)c1ccc(Oc2ccc(F)cc2F)c(-c2cn(C)c(=O)c3[nH]ccc23)c1  human BRD4 first bromodomain (BDI_K57-E168) (Homo sapiens (Human), UniProt O60885)             8.27

Working through the 7 compounds below one at a time, give pKi for each.
1. CCS(=O)(=O)c1ccc(Oc2cccc(CO)c2)c(-c2cn(C)c(=O)c3[nH]ccc23)c1
2. Cn1cc(-c2cc(C(=O)NCc3cccnc3)ccc2Oc2ccc(F)cc2F)c2cc[nH]c2c1=O
3. Cn1cc(-c2cc(NS(=O)(=O)CCF)ccc2Oc2ccc(C#N)cc2)c2cc[nH]c2c1=O
4. Cn1cc(-c2cc(S(C)(=O)=O)ccc2OC[C@H]2CCC(=O)N2)c2cc[nH]c2c1=O
5. CN(C)C1CCN(S(=O)(=O)c2ccc(OCC3CC3)c(-c3cn(C)c(=O)c4[nH]ccc34)c2)C1 (stereo not shown)
6. Cc1cccc(OCC2CC2)c1-c1cn(C)c(=O)c2[nH]ccc12
7. Cn1cc(-c2cc(S(C)(=O)=O)ccc2OCCN2CCNC2=O)c2cc[nH]c2c1=O

## Output
[8.17, 7.14, 7.32, 6.85, 7.39, 5.96, 7.16]

* * *

Answer each item with its documented log10(half-life at 0.5 μM).
experiment: Rat liver microsome stability assay; format: in vitro ADME; conditions: rat liver microsomes (male Sprague-Dawley), 0.5 μM test compound, 0.25 mg/mL microsomal protein, pH 7.4, 37° C.; read-out: Stability in rat liver microsomes (t1/2 in minutes)
Values are log10 of half-life at 0.5 μM in min.

In the examples that follow, each entry is paired with its recorded log10(half-life at 0.5 μM).
> print(dat)
                                   compound                    endpoint  recorded.number
1  Cn1cc(-c2cc(S(C)(=O)=O)ccc2Oc2cccc(C(F)(F)F)c2)c2cc[nH]c2c1=O [Example 157]  log10(half-life at 0.5 μM)             1.72
2  Cn1cc(-c2cc(NS(C)(=O)=O)ccc2OC2CCCOC2)c2cc[nH]c2c1=O (stereo not shown) [Example 60]  log10(half-life at 0.5 μM)             1.81
3  Cn1cc(-c2cc(CS(=O)(=O)c3ccccc3)ccc2Oc2ccc(F)cc2F)c2cc[nH]c2c1=O [Example 306]  log10(half-life at 0.5 μM)             0.95
4  Cn1cc(-c2cc(S(C)(=O)=O)ccc2Oc2ccc(F)cc2F)c2cc(CNC3CCOC3)[nH]c2c1=O (stereo not shown) [Example 284]  log10(half-life at 0.5 μM)             2.03
5  CC(=O)Nc1ccc(Oc2ccc(F)cc2F)c(-c2cn(C)c(=O)c3[nH]ccc23)c1 [Example 37]  log10(half-life at 0.5 μM)             1.73

Hi! Can you tell me log10(half-life at 0.5 μM) for each of these compounds?
1. CN1CCCC1CCOc1ccc(S(C)(=O)=O)cc1-c1cn(C)c(=O)c2[nH]ccc12 (stereo not shown) [Example 225]
2. COc1ccc2[nH]cc(CCNC(=O)c3ccc(Oc4ccc(F)cc4F)c(-c4cn(C)c(=O)c5[nH]ccc45)c3)c2c1 [Example 124]
3. CCS(=O)(=O)Nc1ccc(OCC2CC2)c(-c2cn(C)c(=O)c3[nH]ccc23)c1C [Example 251]
4. Cn1cc(-c2cc(-c3cccc(C#N)c3)ccc2OCC2CC2)c2cc[nH]c2c1=O [Example 353]
5. Cn1cc(-c2cc(S(=O)(=O)N3CCOCC3)ccc2OCC2CC2)c2cc[nH]c2c1=O [Example 286]
6. Cn1cc(-c2cc(NS(C)(=O)=O)ccc2OC2CCOCC2)c2cc[nH]c2c1=O [Example 29]

## Output
1. 1.77
2. 0.60
3. 1.36
4. 0.90
5. 1.28
6. 1.41
